Tested On: HCV NS5B polymerase 1a-H77 (Hepatitis C virus genotype 1a, UniProt P27958)
Construct: six-histidine tag; made in house; host or cells: E. coli
Sequence (P27958 2421-2990): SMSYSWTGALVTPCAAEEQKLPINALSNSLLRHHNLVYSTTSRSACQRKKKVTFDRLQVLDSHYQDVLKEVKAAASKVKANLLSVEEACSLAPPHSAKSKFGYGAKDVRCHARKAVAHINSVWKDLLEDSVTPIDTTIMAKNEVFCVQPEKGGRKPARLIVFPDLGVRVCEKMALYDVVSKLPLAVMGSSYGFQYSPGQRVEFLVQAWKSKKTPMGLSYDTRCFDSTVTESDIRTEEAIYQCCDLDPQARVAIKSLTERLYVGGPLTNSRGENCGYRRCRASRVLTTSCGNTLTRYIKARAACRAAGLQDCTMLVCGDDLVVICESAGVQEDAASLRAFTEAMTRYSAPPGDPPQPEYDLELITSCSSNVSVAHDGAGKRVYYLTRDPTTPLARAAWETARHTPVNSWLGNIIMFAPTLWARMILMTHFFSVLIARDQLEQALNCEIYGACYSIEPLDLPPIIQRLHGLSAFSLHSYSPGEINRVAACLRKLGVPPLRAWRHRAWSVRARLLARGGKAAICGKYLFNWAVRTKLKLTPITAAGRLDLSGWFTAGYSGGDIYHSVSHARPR
Experiment Description: biochemical
Set-up: species or system HCV genotype 1a
Applied Conditions: enzyme, strain 1a H77; read-out: HCV Polymerase Strain 1a H77 IC50
Parameter: pIC50
Answers are plain numbers, as −log10 of the molar value.

Previously resolved entries follow.
CS(=O)(=O)N(CCCOc1ccccc1)c1cc2oc(-c3ccc(F)cc3)c(-c3ncc[nH]3)c2cc1C1CC1 [Example 37] :: 8.26
CN(C)CCCN(c1cc2oc(-c3ccc(F)cc3)c(C3=NOCCN3)c2cc1C1CC1)S(C)(=O)=O [Example 127] :: 7.60
CS(=O)(=O)Nc1cc2oc(-c3ccc(F)cc3)c(-c3nc(Cl)c(Cl)[nH]3)c2cc1C1CC1 [Example 163] :: 6.67
CN(C)C(=O)CCCN(c1cc2oc(-c3ccc(F)cc3)c(-c3ncc[nH]3)c2cc1C1CC1)S(C)(=O)=O [Example 102] :: 8.11
CS(=O)(=O)N(CCCCO)c1cc2oc(-c3ccc(F)cc3)c(-c3noc(=O)[nH]3)c2cc1C1CC1 [Example 185] :: 5.64
CS(=O)(=O)N(CCCc1nnn[nH]1)c1cc2oc(-c3ccc(F)cc3)c(-c3ncc[nH]3)c2cc1C1CC1 [Example 174] :: 8.46

// switching to the query molecule
State the recorded pIC50 for this entry: CS(=O)(=O)Nc1cc2oc(-c3ccc(F)cc3)c(-c3ncc[nH]3)c2cc1C1CC1 [Example 1]
8.23

* * *

Tested On: HCV NS5B polymerase 1a-H77-C316Y (Hepatitis C virus genotype 1a, UniProt P27958, C2736Y)
Construct: six-histidine tag; made in house; host or cells: E. coli
Sequence (P27958 2421-2990 C2736Y): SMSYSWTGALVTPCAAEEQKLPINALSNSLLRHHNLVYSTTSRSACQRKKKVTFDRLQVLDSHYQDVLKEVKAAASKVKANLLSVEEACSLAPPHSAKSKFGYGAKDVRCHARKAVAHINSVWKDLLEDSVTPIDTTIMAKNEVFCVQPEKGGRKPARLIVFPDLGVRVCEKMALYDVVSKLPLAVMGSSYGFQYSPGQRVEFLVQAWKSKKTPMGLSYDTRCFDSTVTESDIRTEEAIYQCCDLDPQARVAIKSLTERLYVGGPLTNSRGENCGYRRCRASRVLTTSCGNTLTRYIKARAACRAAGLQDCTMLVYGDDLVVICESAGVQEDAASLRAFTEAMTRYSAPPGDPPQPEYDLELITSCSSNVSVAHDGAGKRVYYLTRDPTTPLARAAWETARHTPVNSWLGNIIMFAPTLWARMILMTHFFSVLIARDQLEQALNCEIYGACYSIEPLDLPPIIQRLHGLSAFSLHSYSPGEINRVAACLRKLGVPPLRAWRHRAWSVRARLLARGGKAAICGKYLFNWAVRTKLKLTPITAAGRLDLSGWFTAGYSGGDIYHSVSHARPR
Experiment Description: biochemical
Set-up: species or system HCV genotype 1a
pIC50: −log10 of the molar value.
Binary call on pIC50: Satisfied from 6 upward, Not satisfied beneath that.

CC[S+]([O-])CCN(c1cc2oc(-c3ccc(F)cc3)c(C3=NOCCN3)c2cc1C1CC1)S(C)(=O)=O (stereo not shown) :: Satisfied
CS(=O)(=O)N(CCCCC(N)=O)c1cc2oc(-c3ccc(F)cc3)c(-c3ncc[nH]3)c2cc1C1CC1 :: Satisfied
CC(O)CN(c1cc2oc(-c3ccc(F)cc3)c(-c3ncc[nH]3)c2cc1C1CC1)S(C)(=O)=O (stereo not shown) :: Not satisfied

pIC50 >= 6 for CC(C)(C)Oc1ncc(-c2ncc(CN(c3ccc4c(-c5ncc[nH]5)c(-c5ccccc5)oc4c3)S(C)(=O)=O)s2)c(OC(C)(C)C)n1 ?
Not satisfied

Dear colleague, could you confirm whether CC(C)=CCCN(c1cc2oc(-c3ccc(F)cc3)c(-c3ncc[nH]3)c2cc1C1CC1)S(C)(=O)=O has pIC50 at or above 6?
Satisfied

Does pIC50 meet or surpass 6 for CS(=O)(=O)N(CCC1CCS(=O)(=O)C1)c1cc2oc(-c3ccc(F)cc3)c(-c3ncc[nH]3)c2cc1C1CC1 (stereo not shown) ?
Satisfied

* * *

Would you kindly list pEC50 for each of these compounds?
Tested on: HCV 1a-H77 subgenomic replicon
Experiment Description: microbe, parasite or virus in culture
Format: cell-based, HCV genotype 1a
Applied Conditions: Hepatitis C virus, stable replicon, strain 1a H77, 5% FBS, no human plasma; read-out: 1a H77 5% FBS EC50
Answers are plain numbers, as −log10 of the molar value.

CC(C)CCN(c1cc2oc(-c3ccc(F)cc3)c(-c3ncc[nH]3)c2cc1C1CC1)S(C)(=O)=O :: 7.54
CS(=O)(=O)N(Cc1cccc(C(F)(F)F)c1)c1ccc2c(-c3ncc[nH]3)c(-c3ccccc3)oc2c1 :: 5.63
CS(=O)(=O)CCCN(c1cc2oc(-c3ccc(F)cc3)c(C3=NOCCN3)c2cc1C1CC1)S(C)(=O)=O :: 7.84

# next compound below
# pEC50 lookup, item CS(=O)(=O)N(CCCc1noc(=S)[nH]1)c1cc2oc(-c3ccc(F)cc3)c(C3=NOCCN3)c2cc1C1CC1
6.98

* * *

Test system: HCV 1b-BB7 subgenomic replicon
Experiment Description: microbe, parasite or virus in culture
Format: cell-based, HCV genotype 1b
Applied Conditions: Hepatitis C virus, stable replicon, strain 1b BB7, 5% FBS; read-out: 1b BB7 5% FBS EC50
Parameter: pEC50
Give bare numbers, as −log10 of the molar value.

Cn1cc(-c2ncc(CN(c3ccc4c(-c5ncc[nH]5)c(-c5ccccc5)oc4c3)S(C)(=O)=O)s2)cn1 [Example 26] :: 7.82
CS(=O)(=O)NCCCN(c1cc2oc(-c3ccc(F)cc3)c(-c3ncc[nH]3)c2cc1C1CC1)S(C)(=O)=O [Example 95] :: 8.32
CCC1NC(c2c(-c3ccc(F)cc3)oc3cc(N(CCC(C)C)S(C)(=O)=O)c(C4CC4)cc23)=NO1 (stereo not drawn) [Example 155] :: 5.20
CS(=O)(=O)N(CCCc1nnn[nH]1)c1cc2oc(-c3ccc(F)cc3)c(C3=NOCCN3)c2cc1C1CC1 [Example 180] :: 6.00

Here are 5 compounds. What values of pEC50 were reported for them?
1. CS(=O)(=O)N(CCCc1noc(=S)[nH]1)c1cc2oc(-c3ccc(F)cc3)c(-c3ncc[nH]3)c2cc1C1CC1 [Example 177]
2. CS(=O)(=O)N(CCCOc1ccccc1)c1cc2oc(-c3ccc(F)cc3)c(-c3ncc[nH]3)c2cc1C1CC1 [Example 37]
3. CS(=O)(=O)N(CCc1ccccc1)c1cc2oc(-c3ccc(F)cc3)c(-c3ncc[nH]3)c2cc1C1CC1 [Example 35]
4. CS(=O)(=O)N(CC(O)CO)c1cc2oc(-c3ccc(F)cc3)c(-c3ncc[nH]3)c2cc1C1CC1 (stereo not drawn) [Example 93]
5. CS(=O)(=O)N(CCC/C(N)=N/O)c1cc2oc(-c3ccc(F)cc3)c(-c3ncc[nH]3)c2cc1C1CC1 [Example 176]

1. 7.64
2. 6.84
3. 7.29
4. 7.20
5. 7.70

For the 6 compounds below, give their pEC50 values.
1. CS(=O)(=O)N(CC1CCOCC1)c1cc2oc(-c3ccc(F)cc3)c(-c3ncc[nH]3)c2cc1C1CC1 [Example 38]
2. CS(=O)(=O)Nc1cc2oc(-c3ccc(F)cc3)c(C3=NOCN3)c2cc1C1CC1 [Example 173]
3. CS(=O)(=O)N(CCCCC(F)=C(F)F)c1cc2oc(-c3ccc(F)cc3)c(C3=NOCCN3)c2cc1C1CC1 [Example 120]
4. CS(=O)(=O)N(CCOc1ccccc1)c1cc2oc(-c3ccc(F)cc3)c(-c3ncc[nH]3)c2cc1C1CC1 [Example 43]
5. CS(=O)(=O)Nc1cc2oc(-c3ccc(F)cc3)c(-c3nc(Cl)c[nH]3)c2cc1C1CC1 [Example 164]
6. CS(=O)(=O)N(CCCCCO)c1cc2oc(-c3ccc(F)cc3)c(C3=NOCCN3)c2cc1C1CC1 [Example 134]

[7.90, 6.52, 7.74, 7.10, 6.00, 8.05]

* * *

Test system: HCV 1b-BB7 subgenomic replicon
Experiment Description: microbe, parasite or virus in culture
Type: cell-based, HCV genotype 1b
Applied Conditions: Hepatitis C virus, stable replicon, strain 1b BB7, 5% FBS; read-out: 1b BB7 5% FBS EC50
// thresholds for EC50 classes: bottom = under 10 nM, middle = from 10 nM up to 60 nM, top = 60 nM and over

Solved entries (count: 4):
CS(=O)(=O)N(CCCC(=O)N1CCCCC1)c1cc2oc(-c3ccc(F)cc3)c(-c3ncc[nH]3)c2cc1C1CC1 :: middle
COc1ccc(CN(c2cc3oc(-c4ccc(F)cc4)c(-c4ncc(C)[nH]4)c3cc2C2CC2)S(C)(=O)=O)cc1 :: top
CS(=O)(=O)N(CCCCO)c1cc2oc(-c3ccc(F)cc3)c(-c3noc(=O)[nH]3)c2cc1C1CC1 :: top
COC(=O)CCCN(c1cc2oc(-c3ccc(F)cc3)c(-c3ncc[nH]3)c2cc1C1CC1)S(C)(=O)=O :: top

Would you mind sorting CS(=O)(=O)N(CCCc1noc(=O)[nH]1)c1cc2oc(-c3ccc(F)cc3)c(-c3ncc[nH]3)c2cc1C1CC1 into the appropriate category?
top

Field: class (EC50) — entry: CC(=O)OCCCCCN(c1cc2oc(-c3ccc(F)cc3)c(-c3ncc[nH]3)c2cc1C1CC1)S(C)(=O)=O
bottom

Into which bin does this compound go? CS(=O)(=O)CCCN(c1cc2oc(-c3ccc(F)cc3)c(C3=NOCCN3)c2cc1C1CC1)S(C)(=O)=O
middle

* * *

System: HCV 1b-BB7 subgenomic replicon
Experiment Description: microbe, parasite or virus in culture
Format: cell-based, HCV genotype 1b
Applied Conditions: Hepatitis C virus, stable replicon, strain 1b BB7, 5% FBS, no human plasma; read-out: 1b BB7 5% FBS EC50
Parameter: log10(EC50) (log10 of the value in nM)
Answers are given as log10 of EC50 in nM.

Recorded log10(EC50), per entry:
CC(C)CCN(c1cc2oc(-c3ccc(F)cc3)c(-c3nccc(=O)[nH]3)c2cc1C1CC1)S(C)(=O)=O :: 2.27
CC(C)CCN(c1cc2oc(-c3ccc(F)cc3)c(C3=NOC(C)(C)N3)c2cc1C1CC1)S(C)(=O)=O :: 4.00

Give log10(EC50) for each of the items listed below.
1. CS(=O)(=O)N(CCCCO)c1cc2oc(-c3ccc(F)cc3)c(C3=NOCCN3)c2cc1C1CC1
2. CS(=O)(=O)N(CCCc1n[nH]c(=O)o1)c1cc2oc(-c3ccc(F)cc3)c(-c3ncc[nH]3)c2cc1C1CC1
3. CC(C)CCN(c1cc2oc(-c3ccc(F)cc3)c(-c3ncc[nH]3)c2cc1C1CC1)S(C)(=O)=O
4. CS(=O)(=O)N(CCC(F)(F)F)c1cc2oc(-c3ccc(F)cc3)c(C3=NOCCN3)c2cc1C1CC1
5. CS(=O)(=O)N(CCCCCO)c1cc2oc(-c3ccc(F)cc3)c(-c3ncc[nH]3)c2cc1C1CC1

1: 1.00; 2: 0.95; 3: 1.40; 4: 1.41; 5: 0.69

The origin of these recorded values is patent US20160355530A1.
